assay method text: Inhibition of beta-lactamase L1 (unknown origin) expressed in Escherichia coli BL21(DE3) using nitrocefin as substrate by measuring substrate hydrolysis at 100 uM preincubated for 30 mins by spectrophotometric analysis
Active and inactive are the calls of the source. The rule behind the calls is not given here.
parameter: inhibition

Oc1ccc(/C=N/n2c(-c3cccc(Br)c3)n[nH]c2=S)c(O)c1 :: inactive
Oc1ccc(/C=N/n2c(-c3cccc(Cl)c3)n[nH]c2=S)c(O)c1 :: 30%
S=c1[nH]nc(-c2ccccc2)n1/N=C/c1ccccc1 :: inactive
S=c1[nH]nc(-c2cccc(Br)c2)n1/N=C/c1ccc(OCc2ccccc2)cc1 :: 15%
Oc1ccc(/C=N/n2c(C(c3ccccc3)c3ccccc3)n[nH]c2=S)c(O)c1 :: inactive
Oc1ccc(/C=N/n2c(CCc3ccccc3)n[nH]c2=S)c(O)c1 :: 51%
S=c1[nH]nc(-c2cccc(-c3ccccc3)c2)n1/N=C/c1ccc(OCc2ccccc2)cc1 :: inactive
Oc1ccc(/C=N/n2c(-c3cccc(F)c3)n[nH]c2=S)c(O)c1 :: 25%
Cc1ccccc1-c1n[nH]c(=S)n1/N=C/c1cc([N+](=O)[O-])ccc1O :: 61%
O=C(O)c1ccccc1/C=N/n1c(-c2ccccn2)n[nH]c1=S :: inactive

Cited source: ChEMBL document CHEMBL4706580
